Source listed as PubChem BioAssay AID2060626.

System: 168753-222-R-J1-PDC complex spheroid viability
test.summary: Anticancer human tumor 168753-222-R-J1-PDC patient-derived bladder carcinoma cell line growth inhibition [CLK]
run.conditions: curve of first compound; second compound 0.316 µM
pIC50: −log10 of the molar value.
metric: pIC50

INSERT INTO measurements (compound, test_result) VALUES
  ('C=CC(=O)Nc1cc(Nc2nccc(-c3cn(C)c4ccccc34)n2)c(OC)cc1N(C)CCN(C)C + CN1CCN(c2cc(C(=O)Nc3cc4cc(-c5cnn(C)c5)ccc4cn3)ccn2)CC1', '> 9.02'),
  ('COC1C=CCC(C)C(C)S(=O)(=O)NC(=O)c2ccc3c(c2)N(CC2CCC21)CC1(CCCc2cc(Cl)ccc21)CO3 (stereo not drawn) + CN1CCN(c2cc(C(=O)Nc3cc4cc(-c5cnn(C)c5)ccc4cn3)ccn2)CC1', '> 7.50'),
  ('O=C(c1cc(Cc2n[nH]c(=O)c3ccccc23)ccc1F)N1CCN(C(=O)C2CC2)CC1 + CNC(=O)c1ccc(Nc2nc(OC3CCCC3)c3c(-c4ccc5nc(C)oc5c4)c[nH]c3n2)c(OC)c1', '< 5.00');

----------
Test system: 168753-222-R-J1-PDC complex spheroid viability
test.summary: Anticancer human tumor 168753-222-R-J1-PDC cell line growth inhibition [CLK];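 further: viability measured after seven days of drug exposure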;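 on viability, T/C: luminescence signal used as surrogate for viable cell amount; 100% = DMSO vehicle control wells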
run.conditions: second compound 0.316 µM; first compound 1 µM; stronger effect = lower value
Listed next: entries and their corresponding viability, T/C.
metric: viability, T/C (%)

INSERT INTO results (compound, metric, test_result) VALUES
  ('CC(Nc1ccc2c(c1)OCCn1cc(N3C(=O)OCC3C(F)F)nc1-2)C(N)=O (stereo not given) + CN1CCN(c2cc(C(=O)Nc3cc4cc(-c5cnn(C)c5)ccc4cn3)ccn2)CC1', 'viability, T/C', 1.63),
  ('COC1C=CCC(C)C(C)S(=O)(=O)NC(=O)c2ccc3c(c2)N(CC2CCC21)CC1(CCCc2cc(Cl)ccc21)CO3 (stereo not given) + CNC(=O)c1ccc(Nc2nc(OC3CCCC3)c3c(-c4ccc5nc(C)oc5c4)c[nH]c3n2)c(OC)c1', 'viability, T/C', 29.7),
  ('C#Cc1c(F)ccc2cc(O)cc(-c3ncc4c(N5CC6CCC(C5)N6)nc(OCC56CCCN5CC(F)C6)nc4c3F)c12 (stereo not given) + CN1CCN(c2cc(C(=O)Nc3cc4cc(-c5cnn(C)c5)ccc4cn3)ccn2)CC1', 'viability, T/C', 12),
  ('Nc1ccccc1NC(=O)c1ccc(CNC(=O)OCc2cccnc2)cc1 + CN1CCN(c2cc(C(=O)Nc3cc4cc(-c5cnn(C)c5)ccc4cn3)ccn2)CC1', 'viability, T/C', 7.09),
  ('Nc1ccccc1NC(=O)c1ccc(CNC(=O)OCc2cccnc2)cc1 + CNC(=O)c1ccc(Nc2nc(OC3CCCC3)c3c(-c4ccc5nc(C)oc5c4)c[nH]c3n2)c(OC)c1', 'viability, T/C', 78.3);

----------
Test system: 168753-222-R-J1-PDC complex spheroid viability
test.summary: Anticancer human tumor 168753-222-R-J1-PDC cell line growth inhibition [CLK];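 further: viability measured after seven days of drug exposure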;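 on viability, T/C: luminescence signal used as surrogate for viable cell amount; 100% = DMSO vehicle control wells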
run.conditions: second compound 0.0316 µM; first compound 0.316 µM; stronger effect = lower value
Each record here notes measured viability, T/C.
metric: viability, T/C (%)

INSERT INTO measurements (molecule, experimental_target, test_result) VALUES
  ('C=C(F)C(=O)N1CCN(c2nc(OCC3CCCN3C)nc3c2CCN(c2cccc4cccc(Cl)c24)C3)CC1CC#N (stereo not given) + CN1CCN(c2cc(C(=O)Nc3cc4cc(-c5cnn(C)c5)ccc4cn3)ccn2)CC1', '168753-222-R-J1-PDC complex spheroid viability', 85.8),
  ('CC(Nc1ccc2c(c1)OCCn1cc(N3C(=O)OCC3C(F)F)nc1-2)C(N)=O (stereo not given) + CNC(=O)c1ccc(Nc2nc(OC3CCCC3)c3c(-c4ccc5nc(C)oc5c4)c[nH]c3n2)c(OC)c1', '168753-222-R-J1-PDC complex spheroid viability', 20.2),
  ('CC1COCCN1c1cc(C2(S(C)(=N)=O)CC2)nc(-c2ccnc3[nH]ccc23)n1 (stereo not given) + CN1CCN(c2cc(C(=O)Nc3cc4cc(-c5cnn(C)c5)ccc4cn3)ccn2)CC1', '168753-222-R-J1-PDC complex spheroid viability', 67.3),
  ('CCN1CCN(Cc2ccc(Nc3ncc(F)c(-c4cc(F)c5nc(C)n(C(C)C)c5c4)n3)nc2)CC1 + CN1CCN(c2cc(C(=O)Nc3cc4cc(-c5cnn(C)c5)ccc4cn3)ccn2)CC1', '168753-222-R-J1-PDC complex spheroid viability', 22.4),
  ('CC1(C)CCC(CN2CCN(c3ccc(C(=O)NS(=O)(=O)c4ccc(NCC5CCOCC5)c([N+](=O)[O-])c4)c(Oc4cnc5[nH]ccc5c4)c3)CC2)=C(c2ccc(Cl)cc2)C1 + CN1CCN(c2cc(C(=O)Nc3cc4cc(-c5cnn(C)c5)ccc4cn3)ccn2)CC1', '168753-222-R-J1-PDC complex spheroid viability', 55.5);
